Measured HDAC6 activity raw data (signal) by item
Target: HDAC6 (Homo sapiens, UniProt Q9UBN7)
Construct: purchased Reaction Biology Corporation (assay run by the CRO)
Sequence (Q9UBN7 whole entry): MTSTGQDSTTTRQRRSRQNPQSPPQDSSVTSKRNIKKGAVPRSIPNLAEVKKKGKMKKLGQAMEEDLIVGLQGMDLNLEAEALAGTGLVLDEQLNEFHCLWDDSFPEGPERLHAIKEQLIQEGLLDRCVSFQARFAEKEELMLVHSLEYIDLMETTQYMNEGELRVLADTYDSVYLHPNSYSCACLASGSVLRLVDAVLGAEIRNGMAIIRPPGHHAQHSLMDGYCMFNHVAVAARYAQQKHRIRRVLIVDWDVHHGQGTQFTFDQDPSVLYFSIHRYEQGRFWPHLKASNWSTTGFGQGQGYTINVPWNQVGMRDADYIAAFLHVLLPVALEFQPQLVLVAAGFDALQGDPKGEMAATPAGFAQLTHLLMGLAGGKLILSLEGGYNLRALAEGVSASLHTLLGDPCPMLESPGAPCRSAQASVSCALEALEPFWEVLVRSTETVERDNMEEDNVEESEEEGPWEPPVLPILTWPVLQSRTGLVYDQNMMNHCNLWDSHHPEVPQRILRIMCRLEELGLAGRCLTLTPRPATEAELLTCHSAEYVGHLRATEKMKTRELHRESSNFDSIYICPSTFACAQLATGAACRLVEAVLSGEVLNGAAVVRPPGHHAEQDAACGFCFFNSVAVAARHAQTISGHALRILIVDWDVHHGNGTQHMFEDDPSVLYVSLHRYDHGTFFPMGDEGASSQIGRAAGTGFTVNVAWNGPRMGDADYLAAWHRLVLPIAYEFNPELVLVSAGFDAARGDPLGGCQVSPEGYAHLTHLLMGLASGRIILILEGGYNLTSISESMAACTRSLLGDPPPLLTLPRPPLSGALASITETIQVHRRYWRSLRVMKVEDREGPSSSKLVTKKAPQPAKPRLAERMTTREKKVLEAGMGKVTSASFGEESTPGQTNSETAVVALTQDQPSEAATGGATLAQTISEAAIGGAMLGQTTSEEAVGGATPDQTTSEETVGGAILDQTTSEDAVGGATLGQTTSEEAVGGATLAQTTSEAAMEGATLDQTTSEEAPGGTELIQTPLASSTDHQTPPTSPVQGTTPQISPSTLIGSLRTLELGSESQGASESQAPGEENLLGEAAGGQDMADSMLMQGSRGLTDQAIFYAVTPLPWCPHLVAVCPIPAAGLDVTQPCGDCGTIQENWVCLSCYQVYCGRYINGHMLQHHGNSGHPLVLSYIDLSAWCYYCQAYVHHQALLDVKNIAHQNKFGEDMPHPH
Assay: HDAC6 inhibition, full IC50 measurement (Reaction Biology; fluorogenic p53 peptide RHKK(Ac)AMC)
Format: biochemical
Conditions: Conc. 5.08E-10 M, t1
Peptide text beside a SMILES is read from it.

What value of measured HDAC6 activity raw data (signal) is listed for NCCCC[C@H]1NC(=O)[C@H](CCC(N)=O)NC(=O)[C@H](CCC(=O)O)NC(=O)[C@@H]2CCCN2C(=O)[C@H](CC(N)=O)NC(=O)[C@H](CCCCCS)NC(=O)CNC(=O)[C@H](Cc2c[nH]c3ccccc23)NC1=O [des1.1.1, SHA-Asn-Pro-Glu-Gln-dLys-Trp-Gly] (HELM PEPTIDE1{E.Q.[dK].W.G.[O=C([C@H](CCCCCS)N[*:1])[*:2]].N.P}$PEPTIDE1,PEPTIDE1,1:R1-8:R2$$$V2.0) ?
541421

Now look at this one.
What value of measured HDAC6 activity raw data (signal) is listed for NCCCC[C@@H]1NC(=O)[C@@H]2CCCN2C(=O)[C@H](CC(N)=O)NC(=O)[C@H](CCCCCS)NC(=O)CNC(=O)[C@H](Cc2c[nH]c3ccccc23)NC(=O)[C@@H](CCCCN)NC(=O)[C@H](CCC(N)=O)NC1=O [des1.1.0, SHA-Asn-Pro-Lys-Gln-dLys-Trp-Gly] (HELM PEPTIDE1{G.[O=C([C@H](CCCCCS)N[*:1])[*:2]].N.P.K.Q.[dK].W}$PEPTIDE1,PEPTIDE1,1:R1-8:R2$$$V2.0) ?
622162
